Measured pIC50 by item
Test: Cytotoxicity against human PC3 cells assessed as decrease in cell viability after 72 hrs by MTT assay
Format: functional, cell-based
Details: PC-3, 72 h
pIC50: −log10 of the molar value.
experimental readout: pIC50

molecule="CC1=C(/C=C/C(=O)/C=C/c2csc3ccccc23)C(C)(C)CCC1O (configuration not stated)" result="5.70 to 6.24"
molecule="COc1cc(/C=C(\\C(=O)/C=C/C2=C(C)C(O)CCC2(C)C)C(=O)/C=C/c2ccc(O)c(OC)c2)ccc1O (configuration not stated)" result="5.25 to 5.92"

----------
Test: Growth inhibition of human MDA-MB-435 cells after 7 days relative to control
Assay type: functional, cell-based
Conditions: MDA-MB-435, 168 h
experimental readout: IC50

compound="CC(=O)/C=C/C1=C(C)CCCC1(C)C [BETA-IONONE]" result="42 µM"

----------
Test: Cytotoxicity against human DU145 cells assessed as decrease in cell viability after 72 hrs by MTT assay
Type: functional, cell-based
Conditions: DU-145, 72 h
experimental readout: IC50

compound="COc1cc(/C=C(\\C(=O)/C=C/C2=C(C)C(O)CCC2(C)C)C(=O)/C=C/c2ccc(O)c(OC)c2)ccc1O (stereo unspecified)" experimental_readout=IC50 result="1.2 to 5.6 µM"

----------
Experiment: Antiproliferative activity against human SGC7901 cells
Type: functional, cell-based
Settings: SGC-7901
pIC50: −log10 of the molar value.
experimental readout: pIC50

molecule=CC(=O)/C=C/C1=C(C)CCCC1(C)C readout_number=3.76

Origin of measurements: ChEMBL document CHEMBL3871262
